Can you tell me DC50 for the items I'm about to list?
Molecular target: IRAK-4 (Homo sapiens)
Sequence (Q9NWZ3 whole entry): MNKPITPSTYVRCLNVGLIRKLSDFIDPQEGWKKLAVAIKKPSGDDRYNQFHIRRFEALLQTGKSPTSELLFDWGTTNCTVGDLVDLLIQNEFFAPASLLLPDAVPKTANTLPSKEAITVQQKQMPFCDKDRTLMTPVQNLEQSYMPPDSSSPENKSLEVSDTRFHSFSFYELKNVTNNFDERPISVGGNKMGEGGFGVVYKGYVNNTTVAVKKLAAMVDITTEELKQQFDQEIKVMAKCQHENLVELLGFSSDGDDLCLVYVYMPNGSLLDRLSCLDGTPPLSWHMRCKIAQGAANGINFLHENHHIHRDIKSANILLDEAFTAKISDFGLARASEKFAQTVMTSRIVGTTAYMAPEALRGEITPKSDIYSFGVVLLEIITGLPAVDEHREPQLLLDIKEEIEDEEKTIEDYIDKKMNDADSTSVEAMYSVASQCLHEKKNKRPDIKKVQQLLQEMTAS
Test: IRAK-4 ELISA, PBMC degradation
Type: cell-based
Parameters: endogenous in cells; host or cells: PBMC
Conditions: treated overnight

Qu. I'm curious: which DC50 was measured for CN(C1CCN(c2ccc3c(c2)C(=O)N(C2CCC(=O)NC2=O)C3=O)CC1)[C@H]1CC[C@H](N2Cc3cc(NC(=O)c4cnn5cccnc45)c(N4CCN(CC(F)F)CC4)cc3C2=O)CC1 (some centres unmarked) [Example 371] tested on IRAK-4 (Homo sapiens)?
Ans. < 1 nM

Qu. I'm curious: which DC50 was measured for O=C1CCC(N2C(=O)c3ccc(N4CC(F)(CN5CCC(n6cc7cc(NC(=O)c8cnn9cc(Cl)cnc89)c(OCC8CC8)cc7n6)CC5)C4)cc3C2=O)C(=O)N1 (centres unmarked) [Example 255] tested on IRAK-4 (Homo sapiens)?
Ans. ≥ 10 nM

Qu. I'm curious: which DC50 was measured for O=C1CCC(N2Cc3ccc(N4CC(F)(CN5CCC(n6cc7cc(NC(=O)c8cnn9cccnc89)c(OCC8CC8)cc7n6)CC5)C4)cc3C2=O)C(=O)N1 (centres unmarked) [Example 245] tested on IRAK-4 (Homo sapiens)?
Ans. 1 to 5 nM

Qu. I'm curious: which DC50 was measured for CC(C)Oc1cc2c(cc1NC(=O)c1cnn3cccnc13)CN(C1CCN(CC3CCN(c4ccc5c(c4F)CN(C4CCC(=O)NC4=O)C5=O)CC3)CC1)C2=O (centres unmarked) [Example 41] tested on IRAK-4 (Homo sapiens)?
Ans. < 1 nM

Qu. I'm curious: which DC50 was measured for CC(C)Oc1cc2c(cc1NC(=O)c1cnn3cccnc13)CN(C1CCN(CC3(F)CN(c4ccc(C(=O)NC5CCC(=O)NC5=O)c(F)c4)C3)CC1)C2=O (centres unmarked) [Example 297] tested on IRAK-4 (Homo sapiens)?
Ans. 1 to 5 nM

====

Biological target: IRAK-4 (Homo sapiens)
Test: IRAK-4 ELISA, OCI-Ly10 degradation
Assay type: cell-based
Set-up: endogenous in cells
Settings: OCI-Ly10 cells, treated overnight
measurement_type: DC50

Qu. Endpoint output: DC50 of CC(C)Oc1cc2c(cc1NC(=O)c1cnn3cccnc13)CN(C1CCN(C3CN(c4cc5c(cc4F)C(=O)N(C4CCC(=O)NC4=O)C5=O)C3)CC1)C2=O (centres unmarked) . Value?
Ans. 10 to 50 nM

Qu. Endpoint output: DC50 of O=C1CCC(N2C(=O)c3ccc(N4CC(CN5CCC(N6Cc7cc(NC(=O)c8cnn9cccnc89)c(N8CCOCC8)cc7C6=O)CC5)C4)cc3C2=O)C(=O)N1 (centres unmarked) . Value?
Ans. 10 to 50 nM

Qu. Endpoint output: DC50 of O=C1CCC(N2C(=O)c3ccc(OCCN4CCC(n5cc6cc(NC(=O)c7cnn8cccnc78)c(OCC7CC7)cc6n5)CC4)cc3C2=O)C(=O)N1 (centres unmarked) . Value?
Ans. 10 to 50 nM

Qu. Endpoint output: DC50 of O=C1CCC(N2C(=O)c3ccc(N4CC(CN5CCC([C@H](F)Cn6cc7cc(NC(=O)c8cnn9cccnc89)c(OCC8CC8)cc7n6)CC5)C4)cc3C2=O)C(=O)N1 (some centres unmarked) . Value?
Ans. < 10 nM

Qu. Endpoint output: DC50 of COc1cc(N2CCC(CN3CCC(N4Cc5cc(NC(=O)c6cnn7cccnc67)c(OC(C)C)cc5C4=O)CC3)CC2)cc2c1C(=O)N(C1CCC(=O)NC1=O)C2=O (centres unmarked) . Value?
Ans. < 10 nM

Qu. Endpoint output: DC50 of COc1cc(N2CCC(CN3CCC(N4Cc5cc(NC(=O)c6cnn7cccnc67)c(OC(C)C)cc5C4=O)CC3)CC2)cc2c1C(=O)N(C1CCC(=O)NC1=O)C2 (centres unmarked) . Value?
Ans. < 10 nM

Qu. Endpoint output: DC50 of COc1cc2nn(C3CCN(CC4CCN(c5ccc6c(c5)C(=O)N(C5CCC(=O)NC5=O)C6=O)CC4)C3)cc2cc1NC(=O)c1cnn2cccnc12 (centres unmarked) . Value?
Ans. ≥ 100 nM

Qu. Endpoint output: DC50 of CC(C)Oc1cc2c(cc1NC(=O)c1cnn3cccnc13)CN(CC1CN(CCc3ccc4c(c3)CN(C3CCC(=O)NC3=O)C4=O)C1)C2=O (centres unmarked) . Value?
Ans. ≥ 100 nM

Qu. Endpoint output: DC50 of O=C1CCC(N2C(=O)c3ccc(OCCOCCN4CCC(n5cc6cc(NC(=O)c7cnn8cc(Cl)cnc78)c(OCC7CC7)cc6n5)CC4)cc3C2=O)C(=O)N1 (centres unmarked) . Value?
Ans. 10 to 50 nM

Qu. Endpoint output: DC50 of CC(C)Oc1cc2c(cc1NC(=O)c1cnn3cccnc13)CN(C1CCN(C3CCN(c4ccc5c(c4)CN(C4CCC(=O)NC4=O)C5=O)CC3)CC1)C2=O (centres unmarked) . Value?
Ans. < 10 nM

Qu. Endpoint output: DC50 of COc1cc2nn([C@H]3CCN(CC4CCN(c5ccc6c(c5)CN(C5CCC(=O)NC5=O)C6=O)CC4)C[C@@H]3F)cc2cc1NC(=O)c1cnn2cccnc12 (some centres unmarked) . Value?
Ans. 10 to 50 nM
